Cited source: paper PMC7819943

molecular target: OsWRKY34 (Oryza sativa, UniProt Q0JBA9 1-250); assay: protein-binding microarray (RPBM); PBS, 2% BSA, 51.3 ng/ul salmon testes DNA, 50 uM zinc acetate, 200 nM TF, 25 C, 1 h; high values mean tight binding; conditions: protein: recombinant; tags: N-terminal polyhistidine and DsRed monomer fusion (pET32a); label: CyDye5-dUTP incorporated in the synthesized complementary strand; 3' TTTTT single-stranded linker to array surface; dsDNA, one strand shown
Sequence (Q0JBA9 entry or part of it): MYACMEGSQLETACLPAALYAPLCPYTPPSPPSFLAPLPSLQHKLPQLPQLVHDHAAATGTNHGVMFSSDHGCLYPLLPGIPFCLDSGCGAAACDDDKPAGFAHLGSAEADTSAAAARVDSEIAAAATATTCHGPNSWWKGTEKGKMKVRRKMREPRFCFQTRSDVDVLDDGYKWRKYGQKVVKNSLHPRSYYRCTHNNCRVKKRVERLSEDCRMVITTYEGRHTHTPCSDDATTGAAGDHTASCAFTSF
In all, about 68,000 sequences were measured (“fluorescence intensity (a.u.)”: median about 9,100, highest 2% from about 16,000 on). The list comes from a sample in which the highest values are over-represented; it also holds close analogues and randomly drawn sequences.
Answer each item with its documented binding signal.

**Q:** Can you share its binding signal? I mean this sequence: `TTGGGAGGGAGAGTGGTAAAGGGTGCTGGGGCTTTGGCTGCGGAGTCACCTAGTGCAG`
**A:** 8840 fluorescence intensity (a.u.)

**Q:** Thanks! And `GTTTCCATAGCATTACACTTTTGTAACTATTATTGTTTTGCGGAGTCACCTAGTGCAG` ?
**A:** 9760 fluorescence intensity (a.u.)

**Q:** Thanks! And `AATTTTCCGTTTCTCCTTTTCTTGCTTTGTTTTTTCCTTGCGGAGTCACCTAGTGCAG` ?
**A:** 15200 fluorescence intensity (a.u.)

**Q:** Thanks! And `TTCACTTTCACCTCGCCGTCTTGGTTGTCTTGCCGTCTTTCGGAGTCACCTAGTGCAG` ?
**A:** 20200 fluorescence intensity (a.u.)

**Q:** Thanks! And `GCAATTTTTTACGCCCACACGACTGTCCGAGAGCAATATGCGGAGTCACCTAGTGCAG` ?
**A:** 8170 fluorescence intensity (a.u.)

**Q:** Thanks! And `TTTATTTTTTTTGTTACTTTTGGGATAAATTTACAATTACCGGAGTCACCTAGTGCAG` ?
**A:** 9060 fluorescence intensity (a.u.)

**Q:** Thanks! And `TGTGCAGTTTTGCTGTTTATGACTAGTTTACCTGTTGTCTCGGAGTCACCTAGTGCAG` ?
**A:** 10800 fluorescence intensity (a.u.)

**Q:** Thanks! And `ATTGTATTCCTACTTGGACTCTTATTTTCTTTTCTAATTTCGGAGTCACCTAGTGCAG` ?
**A:** 10300 fluorescence intensity (a.u.)

**Q:** Thanks! And `GAAATACTCCAATGGGTTAACTTAGGGTCGGGAAGGGGAGCGGAGTCACCTAGTGCAG` ?
**A:** 10100 fluorescence intensity (a.u.)

**Q:** Thanks! And `TCTTCGGTTTACTTATGTCCTGGCTGGTTGGGAGGGGACACGGAGTCACCTAGTGCAG` ?
**A:** 19100 fluorescence intensity (a.u.)

**Q:** Thanks! And `GATTTTTTTTTTCTCGTCTCCTCGTTTTTGCTTGCCTTTCCGGAGTCACCTAGTGCAG` ?
**A:** 19200 fluorescence intensity (a.u.)

**Q:** Thanks! And `CATTTGTGGTTTGTACATATTTATATAAGTTATTATAAATCGGAGTCACCTAGTGCAG` ?
**A:** 9060 fluorescence intensity (a.u.)

**Q:** Thanks! And `ACTGGTTTTACACATTATGTGGGCTAACTTAATACTCCTTCGGAGTCACCTAGTGCAG` ?
**A:** 8040 fluorescence intensity (a.u.)

**Q:** Thanks! And `TAATGTCCCTATTTTGTTATAGTGTTCCTCCAATAATCTGCGGAGTCACCTAGTGCAG` ?
**A:** 8290 fluorescence intensity (a.u.)

**Q:** Thanks! And `GTCTACTTGTTTGGTGTAATTTATTTTTTTTCTTTCGCTTCGGAGTCACCTAGTGCAG` ?
**A:** 9740 fluorescence intensity (a.u.)

**Q:** Thanks! And `GTAATTAACCAGAATTCAGGTTTTGTCAGTGCCACCATCACGGAGTCACCTAGTGCAG` ?
**A:** 9850 fluorescence intensity (a.u.)

**Q:** Thanks! And `CCCTCCTCTCCGCGCGCGCCACCTGTCCATCCGCGCGGAGCGGAGTCACCTAGTGCAG` ?
**A:** 8970 fluorescence intensity (a.u.)

**Q:** Thanks! And `AGTTAGTCAAGCGTATCCTATTTTACGTGCCCGCGCGAATCGGAGTCACCTAGTGCAG` ?
**A:** 9610 fluorescence intensity (a.u.)

**Q:** Thanks! And `TGCTCTTTTTTTCTTGATTATAACCTTCCGGGGTAGTTTTCGGAGTCACCTAGTGCAG` ?
**A:** 8720 fluorescence intensity (a.u.)

====

target: OsWRKY34 (Oryza sativa, UniProt Q0JBA9 1-250); assay: protein-binding microarray (RPBM); PBS, 2% BSA, 51.3 ng/ul salmon testes DNA, 50 uM zinc acetate, 200 nM TF, 25 C, 1 h; high values mean tight binding; conditions: protein: recombinant; tags: N-terminal polyhistidine and DsRed monomer fusion (pET32a); label: CyDye5-dUTP incorporated in the synthesized complementary strand; 3' TTTTT single-stranded linker to array surface; dsDNA, one strand shown
Over roughly 68,000 sequences, “fluorescence intensity (a.u.)” has its median near 9,100; the highest 2% begin near 16,000. This is one part of a sample in which the highest values are shown more often than they occur.
ASSAY_READOUT: binding signal

**Q:** Can you share its binding signal? I mean this sequence: `GGAGGGTCTGTTTTCTTGTGTGCGAGCCTTGCTAGTTGCTCGGAGTCACCTAGTGCAG`
**A:** 16500 fluorescence intensity (a.u.)

**Q:** Thanks! And `TTTTTTCTTTTTTTTTTTGTTTTTTCTCGCCTTTTTTTCCCGGAGTCACCTAGTGCAG` ?
**A:** 11900 fluorescence intensity (a.u.)

**Q:** Thanks! And `CTGTAGTTGCCTTTGTTGGTCTTGGTTTTGCTGTTCTGGTCGGAGTCACCTAGTGCAG` ?
**A:** 9910 fluorescence intensity (a.u.)

**Q:** Thanks! And `TGGAGGGGAGTGGGATCGCGATCACGGGTGGGGCGTCGGACGGAGTCACCTAGTGCAG` ?
**A:** 13100 fluorescence intensity (a.u.)

**Q:** Thanks! And `ATCTGTTCGTGGGTTGCTTGCTCAGTCGACCAATCGTTGACGGAGTCACCTAGTGCAG` ?
**A:** 19200 fluorescence intensity (a.u.)

**Q:** Thanks! And `TTTTCGCATGTTTCTTTTCTTTTTTTTTCTTTTCTTTTCCCGGAGTCACCTAGTGCAG` ?
**A:** 16600 fluorescence intensity (a.u.)

**Q:** Thanks! And `TGGTTTGCATCTCTTCTTGCTCTTTGGAGGATTTACTACTCGGAGTCACCTAGTGCAG` ?
**A:** 9510 fluorescence intensity (a.u.)

**Q:** Thanks! And `ATAAAATAGTTGACTGGCTATCTTCTACTCCACTTGGTATCGGAGTCACCTAGTGCAG` ?
**A:** 8860 fluorescence intensity (a.u.)

**Q:** Thanks! And `CATTTTCTTGGTTTGGTCTTTTTTATTGTTGGGTGTGTTTCGGAGTCACCTAGTGCAG` ?
**A:** 15500 fluorescence intensity (a.u.)

====

biological target: OsWRKY34 (Oryza sativa, UniProt Q0JBA9 1-250); assay: protein-binding microarray (RPBM); PBS, 2% BSA, 51.3 ng/ul salmon testes DNA, 50 uM zinc acetate, 200 nM TF, 25 C, 1 h; high values mean tight binding; conditions: protein: recombinant; tags: N-terminal polyhistidine and DsRed monomer fusion (pET32a); label: CyDye5-dUTP incorporated in the synthesized complementary strand; 3' TTTTT single-stranded linker to array surface; dsDNA, one strand shown
Whole data set: some 68,000 sequences, median “fluorescence intensity (a.u.)” near 9,100, cut for the highest 2% near 16,000. This is one part of a sample in which the highest values are shown more often than they occur.
Answer each item with its documented binding signal.

**Q:** Can you share its binding signal? I mean this sequence: `AAATATACAACTCTTGGACGCCCTTACATCTCTCCATTGTCGGAGTCACCTAGTGCAG`
**A:** 8230 fluorescence intensity (a.u.)

**Q:** Thanks! And `CCGCGGTGGGGCATGGTGGTGAGGTGGGAGGGAGGGAGCTCGGAGTCACCTAGTGCAG` ?
**A:** 17100 fluorescence intensity (a.u.)

**Q:** Thanks! And `GGTGGTTCTGTGAGCCCGCGGGGTTGGGGTTGGGGCCTGGCGGAGTCACCTAGTGCAG` ?
**A:** 12900 fluorescence intensity (a.u.)

**Q:** Thanks! And `CCTCCCTTGTTTTCTGTACCAATACGTGATGCACCGGTCTCGGAGTCACCTAGTGCAG` ?
**A:** 8440 fluorescence intensity (a.u.)

**Q:** Thanks! And `GCGGCGGTGGGGATGGGGATAGGGCGGCGGCGGCGGATGGCGGAGTCACCTAGTGCAG` ?
**A:** 13600 fluorescence intensity (a.u.)

**Q:** Thanks! And `ATTTTTTAAGTGTACGTTGTTGTTGACTTTTTTTATTAACCGGAGTCACCTAGTGCAG` ?
**A:** 14400 fluorescence intensity (a.u.)

**Q:** Thanks! And `GGATGGGCATGGAGGAGGTGCAGTGAGTGGAGCTGGAGGACGGAGTCACCTAGTGCAG` ?
**A:** 8730 fluorescence intensity (a.u.)

**Q:** Thanks! And `TCCGTATTTTAATTAACGACGTCGTTGACTTTTTAACCACCGGAGTCACCTAGTGCAG` ?
**A:** 24200 fluorescence intensity (a.u.)

**Q:** Thanks! And `TGGTTCGCTCGGTGGGTGGTGGTGGTTCTGTGAGCCCGCGCGGAGTCACCTAGTGCAG` ?
**A:** 18400 fluorescence intensity (a.u.)

**Q:** Thanks! And `CTCTCTTTTCCTTTTCTAATTTTAGATTTTATTTTATTTTCGGAGTCACCTAGTGCAG` ?
**A:** 8600 fluorescence intensity (a.u.)

**Q:** Thanks! And `AACCACCACAAGCCGTTAACCCCGTTGTTTACCTCCTCCTCGGAGTCACCTAGTGCAG` ?
**A:** 8190 fluorescence intensity (a.u.)

**Q:** Thanks! And `GAGAGGATGGAGGTGGATGAGGGAGAGGGGCGGGAGACCGCGGAGTCACCTAGTGCAG` ?
**A:** 9460 fluorescence intensity (a.u.)

**Q:** Thanks! And `TGATTGCCTTCTCGATTTTGTTTGTCATTGCGTCTTTGCACGGAGTCACCTAGTGCAG` ?
**A:** 8190 fluorescence intensity (a.u.)

**Q:** Thanks! And `ACCTACCACCACCTTACCCTCTCGCTGACATCCCGGCCCCCGGAGTCACCTAGTGCAG` ?
**A:** 12000 fluorescence intensity (a.u.)

**Q:** Thanks! And `GTGGAGCTATACCTTCTACTCTCAGCAATTGTCCTTTAGACGGAGTCACCTAGTGCAG` ?
**A:** 9460 fluorescence intensity (a.u.)

**Q:** Thanks! And `TGGGGCTTCTGGTGTGCTCGGTGGTGTTCGCCGCGGCGGCCGGAGTCACCTAGTGCAG` ?
**A:** 14200 fluorescence intensity (a.u.)

**Q:** Thanks! And `GATTGGGCGATTTCATCTTCTTCTTGGCCTTGAGGCGGTACGGAGTCACCTAGTGCAG` ?
**A:** 10000 fluorescence intensity (a.u.)

**Q:** Thanks! And `GCGGGATGGGGAGGCGGCGCCGCGAGGAGGAGGGGATGGGCGGAGTCACCTAGTGCAG` ?
**A:** 11900 fluorescence intensity (a.u.)

**Q:** Thanks! And `GCGCGCGGGTGAGGAGGAGGAGGGGATGGGGAGGGGCCCGCGGAGTCACCTAGTGCAG` ?
**A:** 17700 fluorescence intensity (a.u.)
